# credit: PubChem BioAssay (NCI)

Would you mind telling me the reported TGI of each entry?
Tested on: TK-10 renal
assay info: NCI tumour cell line growth inhibition, 48 h
Answers are plain numbers, in µM.

The examples below pair each entry with its known result.
smiles repr	TGI, µM
COc1ccc(N=Nc2c(N)nn3c(-c4cc5cc(Br)ccc5oc4=O)ccnc23)cc1	24.8
COc1ccc(C(=O)/C=C/c2c(F)cccc2Cl)cc1S(N)(=O)=O	9.79

Form: compound = `O=c1[nH]c2ccc(Cl)cc2cc1CSc1ccc(Nc2nccc(-c3ccc(Cl)cc3)n2)cc1` ; TGI = 36.2

###

Assign TGI to each entry below.
System: SN12C renal
assay info: NCI tumour cell line growth inhibition, 48 h

Please state TGI for every compound in the list that follows.
1. COc1ccc(N=Nc2c(N)nn3c(-c4cc5cc(Br)ccc5oc4=O)ccnc23)cc1
2. COc1ccc(C(=O)/C=C/c2c(F)cccc2Cl)cc1S(N)(=O)=O
3. CN(C)c1nc(NCCNS(=O)(=O)c2ccc(C3=Nc4c(N)nc(N)nc4NC(c4ccccc4)C3)cc2)nc(Nc2ccc(F)cc2)n1 (centres undefined)
4. Fc1ccc(/C=C/c2nc3ccccc3n3c(-c4ccc(Cl)cc4)nnc23)cc1

1: 14.1 µM; 2: 10.5 µM; 3: > 100 µM; 4: 34.3 µM

###

Test system: U251 CNS
assay info: NCI tumour cell line growth inhibition, 48 h
Rule: TGI of 4 µM or more gives YES; anything lower gives NO.

smiles repr	discrete label
O=c1[nH]c2ccc(Cl)cc2cc1CSc1ccc(Nc2nccc(-c3ccc(Cl)cc3)n2)cc1	YES
COc1ccc(N=Nc2c(N)nn3c(-c4cc5cc(Br)ccc5oc4=O)ccnc23)cc1	YES
COc1ccc(C(=O)/C=C/c2c(F)cccc2Cl)cc1S(N)(=O)=O	NO
CC1=C2C(=C[C@@](C)(COP(=O)(Oc3ccccc3)Oc3ccccc3)[C@@H]2O)C(=O)[C@@](C)(O)C12CC2	NO

Next compound, please.
Assess whether reported TGI for `Fc1ccc(/C=C/c2nc3ccccc3n3c(-c4ccc(Cl)cc4)nnc23)cc1` sits at 4 µM or higher.
YES

###

System: KM12 colon
assay info: NCI tumour cell line growth inhibition, 48 h
endpoint label: GI50

Worked examples follow.
smiles repr	tgt	result
COc1ccc(C(=O)/C=C/c2cccc(Br)c2)cc1S(N)(=O)=O	KM12 colon	1.33 µM
Fc1ccc(/C=C/c2nc3ccccc3n3c(-c4ccc(Cl)cc4)nnc23)cc1	KM12 colon	> 100 µM
CC1=C2C(=C[C@@](C)(COP(=O)(Oc3ccccc3)Oc3ccccc3)[C@@H]2O)C(=O)[C@@](C)(O)C12CC2	KM12 colon	0.628 µM
O=c1[nH]c2ccc(Cl)cc2cc1CSc1ccc(Nc2nccc(-c3ccc(Cl)cc3)n2)cc1	KM12 colon	30.5 µM

Measured GI50 (KM12 colon), entry `COc1ccc(N=Nc2c(N)nn3c(-c4cc5cc(Br)ccc5oc4=O)ccnc23)cc1` : 4.17 µM

###

Test system: OVCAR-4 ovarian
assay info: NCI tumour cell line growth inhibition, 48 h
Task for the reader: assign each of the following compounds its reported GI50.

Quick request: GI50 for each listed item, please.
1. COc1ccc(C(=O)/C=C/c2c(F)cccc2Cl)cc1S(N)(=O)=O
2. COc1ccc(C(=O)/C=C/c2cccc(Br)c2)cc1S(N)(=O)=O
3. O=c1[nH]c2ccc(Cl)cc2cc1CSc1ccc(Nc2nccc(-c3ccc(Cl)cc3)n2)cc1
4. COc1ccc(N=Nc2c(N)nn3c(-c4cc5cc(Br)ccc5oc4=O)ccnc23)cc1

4.13 µM
4.08 µM
16.9 µM
3.69 µM

###

Test system: SNB-19 CNS
assay info: NCI tumour cell line growth inhibition, 48 h
endpoint label: GI50

Some entries whose results are on file:
smiles repr	GI50
COc1ccc(C(=O)/C=C/c2cccc(Br)c2)cc1S(N)(=O)=O	2.91 µM
CC1=C2C(=C[C@@](C)(COP(=O)(Oc3ccccc3)Oc3ccccc3)[C@@H]2O)C(=O)[C@@](C)(O)C12CC2	0.63 µM
Fc1ccc(/C=C/c2nc3ccccc3n3c(-c4ccc(Cl)cc4)nnc23)cc1	51 µM
O=c1[nH]c2ccc(Cl)cc2cc1CSc1ccc(Nc2nccc(-c3ccc(Cl)cc3)n2)cc1	15.8 µM

In plain terms, `COc1ccc(C(=O)/C=C/c2c(F)cccc2Cl)cc1S(N)(=O)=O` has a documented GI50 of 4.24 µM

###

Tested on: HS 578T breast
assay info: NCI tumour cell line growth inhibition, 48 h
endpoint label: TGI (µM)
Numbers only, in µM.

I'm hoping you can list TGI for every compound here, please.
1. O=c1[nH]c2ccc(Cl)cc2cc1CSc1ccc(Nc2nccc(-c3ccc(Cl)cc3)n2)cc1
2. CC1=C2C(=C[C@@](C)(COP(=O)(Oc3ccccc3)Oc3ccccc3)[C@@H]2O)C(=O)[C@@](C)(O)C12CC2
3. COc1ccc(C(=O)/C=C/c2cccc(Br)c2)cc1S(N)(=O)=O

1. 52
2. 4.46
3. 68.6

###

Test system: MDA-MB-468 breast
assay info: NCI tumour cell line growth inhibition, 48 h; in the data active = GI50 below about 0.43 µM; inactive = the rest
The categories you may choose from are TRUE (active), FALSE (inactive)

Solved entries:
compound	discrete label
CC1SC(c2ccccc2)N(CCc2cccs2)C1=O (stereo not drawn)	FALSE
O=c1[nH]c2ccc(Cl)cc2cc1CSc1ccc(Nc2nccc(-c3ccc(Cl)cc3)n2)cc1	FALSE
COc1ccc2sc3c(NCCCN(C)C)nc4ccccc4c3c(=O)c2c1	FALSE

Which outcome was entered for the compound `O=C1c2cccnc2C(=O)c2nc3cc(N4CCN(C5CC5)CC4)ccc3nc21` in this test?
FALSE

Record lookup: outcome of this test for CCCCC(CC)CN=C(N)NC(N)=NCCCCCCN=C(N)NC(N)=NCC(CC)CCCC (stereo not drawn) ?
FALSE

Recorded call for `COC(=O)[C@H](C[C@H](Cc1ccccc1)NC(=O)c1csc([C@@H](C[C@H](C(C)C)N(C)C(=O)[C@@H](NC(=O)[C@H]2CCCCN2C)C(C)C)OC(C)=O)n1)NC(=O)OCc1ccccc1` ?
TRUE

Identify the outcome logged in this assay for the compound shown: COc1ccc(/C=C2\CCCC3=C2N=C2SC(C)=NN2C3c2ccc(OC)c(OC)c2)cc1OC (stereo not drawn)
FALSE

Can you look up the reported call for `COc1ccc(-c2c3c(N)nc(-c4ccncc4)nc3nc3c2c(C)nn3-c2ccccc2)cc1` for me?
FALSE

###

Test system: MDA-MB-468 breast
assay info: NCI tumour cell line growth inhibition, 48 h
# cutoff 5 µM applies to TGI; >= gives 1, < gives 0

For orientation, consider the following solved cases.
compound	discrete label
O=C(CCCCCCC(=O)Nc1ccc(N(CCCl)CCCl)cc1)NO	0
CN(C)CC(=O)Nc1ccc(Cn2nnc3c2C(=O)c2nnn(Cc4ccc(NC(=O)CN(C)C)cc4)c2C3=O)cc1	0
O=C(NCCO)Nc1ccc(-c2nc(N3CCOCC3)c3cccn3n2)cc1	0
NCCOCCOCCNc1nc(Cc2ccccc2)nc(NCCCN2CCCC2=O)n1	1
CC#C[C@]1(O)CC[C@H]2[C@@H]3CCC4=CC(=O)CCC4=C3[C@@H](c3ccc4c(c3)OCO4)C[C@@]21C	1

Please tell me: is the compound CCN(CC)CC(C)Nc1ccc([N+](=O)[O-])c2sc3ccccc3c(=O)c12 (configuration not stated) at or over 5 µM in terms of TGI?
1

Would you say `C=CCOc1cccc(/C=C2\SC(=Nc3ccc(O)cc3)NC2=O)c1` shows TGI at minimum 5 µM?
0

Item COc1ccc(/C=C2\CCCC3=C2N=C2SC(C)=NN2C3c2ccc(OC)c(OC)c2)cc1OC (configuration not stated) with TGI of 5 µM or above?
1

Hello, I need to know if `COc1cccc(-n2ncc3c(N/N=C/c4ccc(C(=O)NCCN(C)C)cc4)ncnc32)c1` has measured TGI not below 5 µM. Thanks!
1

I'd appreciate it if you could say whether `CN1CCC(n2cnc(-c3ccc(F)cc3)c2-c2ccnc(NCCO)n2)CC1` has TGI at least equal to 5 µM.
1

Hi, just wondering whether `COc1ccc(-c2n/c(=C\c3c(O)[nH]c4ccc(OC)cc34)cc3c2=Nc2ccccc2-3)cc1` shows TGI of 5 µM or higher.
0

###

Could you please report measured GI50 for the items listed next?
Test system: ACHN renal
assay info: NCI tumour cell line growth inhibition, 48 h

Examples from the recorded data:
molecule	GI50
CN(C)c1nc(NCCNS(=O)(=O)c2ccc(C3=Nc4c(N)nc(N)nc4NC(c4ccccc4)C3)cc2)nc(Nc2ccc(F)cc2)n1 (centres undefined)	> 100000 nM
COc1ccc(C(=O)/C=C/c2cccc(Br)c2)cc1S(N)(=O)=O	1670 nM
COc1ccc(N=Nc2c(N)nn3c(-c4cc5cc(Br)ccc5oc4=O)ccnc23)cc1	2520 nM

Here is the next item to consider.
// molecule `Fc1ccc(/C=C/c2nc3ccccc3n3c(-c4ccc(Cl)cc4)nnc23)cc1` , assay ACHN renal, GI50 value: 13600 nM
